# Experimental Details: qHTS of pediatric cancer cell lines to identify multiple opportunities for drug repurposing: Primary screen for Saos-2 cells (AID 1347097); also: nearly all actives have a fitted effect of over 40% in size
# Measurement Conditions: Saos-2 viability, CellTiter-Glo ATP luminescence, 48 h; series mostly up to 46 µM
Results filed as inconclusive are left out. Calls of active or inactive are those of the source. Calls follow the shape of the dose curve; as a rule, active = well fitted cell-killing curve with a large enough effect; inconclusive = small, poorly fitted or top-dose-only effect; inactive = no such curve, though single readings can be large or run the other way.
Lab note: assign the record to one of active, inactive

Observe how each entry below is paired with its result.
C#Cc1cccc(Nc2ncnc3cc(OC)c(OCCCCCCC(=O)NO)cc23)c1
active
COc1ccc2c(c1)CC[C@@H](CN(C)CC(=O)O)[C@H]2c1ccccc1
active
O=C(Cc1ccc(-c2ccc(OCCN3CCOCC3)cc2)cn1)NCc1ccccc1
active

Continue with the next compound.
Prompt: Each compound tested received a call. Report the one for `CC[C@@H]1C(=O)N(C)c2cnc(Nc3ccc(C(=O)NC4CCN(C)CC4)cc3OC)nc2N1C1CCCC1` .
Response: active

====

# Experimental Details: Quantitative High-Throughput drug screen in 47 multiple myeloma cell lines against the NCATS MIPE library collection: JIM1_ECACC cell viability assay (AID 1918964)
# Measurement Conditions: JIM1 myeloma viability, CellTiter-Glo ATP luminescence, 48 h; series mostly up to 45.8 µM
Records with an inconclusive call do not appear. Active and inactive are the calls of the source. Calls come from the whole dose curve; as a rule, active = well fitted cell-killing curve with a large enough effect; inconclusive = small, poorly fitted or top-dose-only effect, or effect the other way; inactive = no such curve, though single readings can be large or run the other way.
Lab note: assign the record to one of 1 for active, 0 for inactive

Observe how each entry below is paired with its result.
Cc1[nH]nc2ccc(-c3cncc(OC[C@@H](N)Cc4ccccc4)c3)cc12
1
COc1cccc2c(NCc3ccccc3)nc(-n3c(N)nc4ccccc43)nc12
1
C=CC(=O)Nc1cc2c(Nc3ccc(F)c(Cl)c3)ncnc2cc1C#CC(C)(C)N1CCN(C)CC1
1
C[C@]1(CO)CN(c2cc(C(=O)Nc3ccc4c(c3)-c3c(c(C(N)=O)nn3-c3ccc(F)cc3)CC4)c(Cl)cn2)C[C@@]1(C)CO
1
Cc1ccc(CN2CCNCC2)cc1NC(=O)CNc1ccc(F)c(F)c1
0

Prompt: Each compound tested received a call. Report the one for `CCN1CCN(CC(=O)Nc2ccc(-c3cccc4c(=O)cc(N5CCOCC5)oc34)c3sc4ccccc4c23)CC1` .
Response: 1

====

# Experimental Details: qHTS of pediatric cancer cell lines to identify multiple opportunities for drug repurposing: Confirmatory screen for SJ-GBM2 cells (AID 1347116);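 also: 48 hour compound exposure; nearly all actives have a fitted effect of over 60% in size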
# Measurement Conditions: SJ-GBM2 glioblastoma cells, viability; series mostly up to 45.9 µM
Records with an inconclusive call do not appear. Activity calls are given as the source filed them. Calls come from the whole dose curve; as a rule, active = well fitted cell-killing curve with a large enough effect; inconclusive = small, poorly fitted or top-dose-only effect, or effect the other way; inactive = no such curve, though single readings can be large or run the other way.
Lab note: assign the record to one of y (active), n (inactive)

Observe how each entry below is paired with its result.
CNC(=O)c1ccc(N2C(=S)N(c3cnc(C#N)c(C(F)(F)F)c3)C(=O)C23CCC3)cc1F
n
CC(C)(C)c1cnc(CSc2cnc(NC(=O)C3CCNCC3)s2)o1
y
Cc1nc(Nc2n[nH]c3c2CN(C(=O)N[C@H](CN(C)C)c2ccccc2)C3(C)C)c2sccc2n1
n
Cc1cc(N2CCOCC2)cc2[nH]c(-c3c(NC[C@@H](O)c4cccc(Cl)c4)cc[nH]c3=O)nc12
y

Continue with the next molecule.
Prompt: Each molecule tested received a call. Report the one for `CC1=C(CO)C(=O)O[C@@H]([C@@H](C)[C@H]2CC[C@H]3[C@@H]4C[C@H]5O[C@]56[C@@H](O)C=CC(=O)[C@]6(C)[C@@H]4CC[C@]23C)C1` .
Response: n
